# credit: paper PMC10289985

# experimentNotes: Plasma protein binding of brigatinib by rapid equilibrium dialysis of participants' plasma samples
# Assay type: in vitro ADME, human
# testSettings: human, plasma, oral, 90 mg, healthy participants; pooled 2, 8, 24 h postdose; read-out: pooled mean ± SD fraction unbound (converted)
# Experimental: Blood samples were collected before brigatinib administration (predose) and at 0.5, 1, 1.5, 2, 2.5, 3, 4, 6, 8, 12, 24, 36, 48, 72, 96, 120, 144, 168, and 192 hours following brigatinib administration to measure brigatinib plasma concentrations. Samples to assess brigatinib plasma protein binding were collected at 2, 8, and 24 hours postdose. Free fractions of brigatinib in plasma samples were determined as previously reported. […]
quantityMeasured: fraction unbound
# output: bare number, no unit

Quick check: fraction unbound of COc1cc(N2CCC(N3CCN(C)CC3)CC2)ccc1Nc1ncc(Cl)c(Nc2ccccc2P(C)(C)=O)n1 ?
0.085

* * *

# experimentNotes: Single oral 90-mg dose plasma PK in participants with chronic hepatic impairment and matched healthy participants
# Assay type: in vivo, human
# testSettings: human, plasma, po, 90 mg, single oral 90 mg; severe (Child-Pugh C) (n=6); read-out: t1/2, terminal elimination half-life, geometric mean (geometric %CV) (converted)
quantityMeasured: half-life (h)
Give just the numeric value; h need not be written.

Quick check: half-life of COc1cc(N2CCC(N3CCN(C)CC3)CC2)ccc1Nc1ncc(Cl)c(Nc2ccccc2P(C)(C)=O)n1 ?
51

* * *

# experimentNotes: Single oral 90-mg dose plasma PK in participants with chronic hepatic impairment and matched healthy participants
# Format: in vivo, human
# testSettings: human, plasma, po, 90 mg, unbound; single oral 90 mg; mild (Child-Pugh A) (n=6); read-out: AUC0−last,u, geometric mean (geometric %CV)
quantityMeasured: AUC(0-t) (ng·h/mL)
Give just the numeric value; ng·h/mL need not be written.

Quick check: AUC(0-t) of COc1cc(N2CCC(N3CCN(C)CC3)CC2)ccc1Nc1ncc(Cl)c(Nc2ccccc2P(C)(C)=O)n1 ?
522
